Molecular target: Beta-lactamase/penicillinase (Bacillus sp.)
Experiment: Inhibitory activity against Beta-lactamase from Bacillus sp. using penicillin G as substrate
pIC50: −log10 of the molar value.
Label fulfilled when pIC50 is at or above 6; otherwise label not fulfilled.

1) C[C@]1(Cn2nncc2C(=O)O)[C@H](C(=O)O)C2C(=O)CC2S1(=O)=O (some centres not stated) :: not fulfilled
2) CCOC(=O)c1cn(C[C@@]2(C)[C@H](C(=O)O)C3C(=O)CC3S2(=O)=O)nn1 (some centres not stated) :: fulfilled
3) CCOC(=O)c1cnnn1C[C@@]1(C)[C@H](C(=O)O)C2C(=O)CC2S1(=O)=O (some centres not stated) :: fulfilled
4) COC(=O)c1nnn(C[C@@]2(C)[C@H](C(=O)O)C3C(=O)CC3S2(=O)=O)c1C(=O)OC (some centres not stated) :: fulfilled
5) C[C@]1(Cn2cc([Si](C)(C)C)nn2)[C@H](C(=O)O)C2C(=O)CC2S1(=O)=O (some centres not stated) :: fulfilled
6) COC(=O)c1cnnn1C[C@@]1(C)[C@H](C(=O)O)C2C(=O)CC2S1(=O)=O (some centres not stated) :: fulfilled
